- Species on record: Rattus norvegicus
- method: Displacement of [3H]AMPA from AMPA receptor in rat cortical membrane at 100 uM
- Type: cell membranes
endpoint_name: Activity (%)

Sample records with Activity:
compound: CCOC(=O)c1nn2c(=O)[nH]c3cc(Cl)c(NC(=O)NC(Cc4ccccc4)C(=O)OC)cc3c2c1C(=O)OCC (racemic)
Activity [%]: 46
--
compound: CCOC(=O)c1nn2c(=O)[nH]c3cc(Cl)c([N+](=O)[O-])cc3c2c1C(=O)OCC
Activity [%]: 40

(a) CCOC(=O)c1nn2c(=O)[nH]c3cc(Cl)c(NC(=O)NCCc4ccccc4)cc3c2c1C(=O)OCC
(b) CCOC(=O)c1ccc(NC(=O)Nc2cc3c(cc2Cl)[nH]c(=O)n2nc(C(=O)OCC)c(C(=O)OCC)c32)cc1
Lookup: Problem: Given the entries a and b , determine which has the lower reported Activity. Kindly state the label of the option you pick.
Found: b
